Assignment: determine reported S/N ratio (cyno CD137-Fc/Fc) for the given binders.
tested target: T1, cyno CD137-Fc (cynomolgus monkey; human, limits assumed, biotin-labeled)
T1 construct: whole entry 92 named; also called biotin-labeled cynomolgus monkey CD137 fused to human IgG1 Fc fragment; not shown: human IgG1 Fc fragment
T1 chain: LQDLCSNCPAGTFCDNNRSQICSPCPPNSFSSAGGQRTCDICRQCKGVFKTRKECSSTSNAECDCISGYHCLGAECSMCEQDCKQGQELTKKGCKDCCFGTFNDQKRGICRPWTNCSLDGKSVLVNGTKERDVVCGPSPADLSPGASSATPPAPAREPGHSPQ
assay text: bead ELISA, IgG on biotinylated antigen, luminescence;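 further: biotinylated antigen captured on streptavidin magnetic beads, then incubated with purified IgG at 50 ng/µL for 1 h at room temperature before detection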
Answers are plain numbers.

# annotated cases, reported S/N ratio (cyno CD137-Fc/Fc) shown
>  <binder>
DADU01_3#018 (antibody, V domains shown, Human IgG1; light chain GLS3000 (kappa); also called dBBDu123) VH: QVQLVESGGGLVQPGRSLRLSCAASGFTFSNAWMHWVRQAPGKGLEWVAQIKDRANSYNAYYAPSVKGRFTISRDDSKNSIYLQMNSLKTEDTAVYYCHYVHYSAASTLLPSFGVDAWGQGTTVTVSS VL: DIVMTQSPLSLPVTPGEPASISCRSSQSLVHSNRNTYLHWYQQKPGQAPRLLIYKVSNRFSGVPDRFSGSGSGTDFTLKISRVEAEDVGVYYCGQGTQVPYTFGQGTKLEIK

>  <S/N ratio (cyno CD137-Fc/Fc)>
3.27

$$$$
>  <binder>
DXDU01_3#094 (antibody, V domains shown, Human IgG1; light chain GLS3000 (kappa); also called dBBDu121) VH: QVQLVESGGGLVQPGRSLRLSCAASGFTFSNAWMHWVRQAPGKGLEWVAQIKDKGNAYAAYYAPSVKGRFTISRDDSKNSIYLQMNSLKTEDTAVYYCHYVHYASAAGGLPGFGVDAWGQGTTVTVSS VL: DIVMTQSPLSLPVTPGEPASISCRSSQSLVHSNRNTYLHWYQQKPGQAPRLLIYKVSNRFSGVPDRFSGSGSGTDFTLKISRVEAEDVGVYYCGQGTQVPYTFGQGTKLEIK

>  <S/N ratio (cyno CD137-Fc/Fc)>
8.09

$$$$

Now for another entry.
Req: Give its S/N ratio (cyno CD137-Fc/Fc) value. Item: DADU01_3#002 (antibody, V domains shown, Human IgG1; light chain GLS3000 (kappa); also called dBBDu124) VH: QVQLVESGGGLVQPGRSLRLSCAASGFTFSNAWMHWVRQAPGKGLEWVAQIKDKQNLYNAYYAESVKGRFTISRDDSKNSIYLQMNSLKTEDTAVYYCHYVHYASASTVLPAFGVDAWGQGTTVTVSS VL: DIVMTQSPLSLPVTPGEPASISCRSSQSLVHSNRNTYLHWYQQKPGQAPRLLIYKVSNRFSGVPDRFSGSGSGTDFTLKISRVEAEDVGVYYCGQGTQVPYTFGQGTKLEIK
Resp: 5.6
